Origin of values: patent US20070037828A1

- assay name: logP determination through HPLC (EEC directive 79/831 Annex V. A8)
- Type: physicochemical
test readout: logP

The cases that follow already have their logP on record.
{"columns": ["compound", "logP"],
 "data": [
  ["COC(=O)c1cnn2c(NC(C)C(C)(C)C)c(-c3ncncc3F)c(Cl)nc12 (centres unmarked)", 3.15],
  ["CC(C)CNc1c(-c2cc(Cl)sc2Cl)c(Cl)nc2c(C#N)cnn12", 4.82],
  ["CC(C)CN(C)c1c(-c2cc(Cl)sc2Cl)c(Cl)nc2c(C#N)cnn12", 5.31],
  ["N#Cc1cnn2c(N3CCCC3)c(-c3cc(Cl)sc3Cl)c(Cl)nc12", 4.61]
]}

A: N#Cc1cnn2c(N3CCOCC3)c(-c3cc(Cl)sc3Cl)c(Cl)nc12
B: CC(Nc1c(-c2ncncc2Cl)c(Cl)nc2c(C=O)cnn12)C(F)(F)F (single isomer, unassigned)
Thinking about recorded logP values, which is higher, A or B ? Record your answer as the label of the chosen record.
A
